test system: BDF1 mice, Lewis lung carcinoma iv, survival T/C; test: NCI In Vivo Anticancer Drug Screen. Data for tumor model Lewis Lung Carcinoma (intravenous) in B6D2F1 (BDF1) mice; settings: endpoint: median survival time; dose: 25.0 mg/kg/injection; schedule: Q01DX009 (ip); vehicle: saline with Tween-80; higher = longer survival
Inconclusive results and toxic doses are left out.
MEASURE_NAME: T/C

• Cc1ccc(N=NN(C)C)cc1 = 100 % of control
• Cc1oc2c(C)c3oc(=O)cc(C)c3cc2c1CCl = 101 % of control
• CC(Oc1ccccc1-c1ccccc1)C(=O)N(C)C (centres undefined) = 95 % of control
• O=S(=O)(N=N/C=C1\C=CC=CN1O)c1cccs1 = 115 % of control
• C(COCCOCC1CO1)OCCOCC1CO1 (centres undefined) = 107 % of control
• CCOC(C)C(/C=N/NC(N)=S)=NNC(N)=S (centres undefined) = 95 % of control
• O=C1C(Cl)=C(Cl)C(=O)C2=C1C1c3ccccc3C2c2ccccc21 = 103 % of control
• Nc1nnc[se]1 = 118 % of control
• CNc1cccnc1/C=N/NC(N)=S = 103 % of control
• Cc1cc2nc(Cc3nc4cc(C)c(C)cc4[nH]3)[nH]c2cc1C = 109 % of control
• O=[n+]1c2c(n([O-])c3ccccc31)-c1cccc3cccc-2c13 = 100 % of control
• O=[N+]([O-])c1ccc(-n2[nH]nnc2=S)cc1 = 101 % of control
• N#CCCSC(=S)C1CCCC1=N (centres undefined) = 101 % of control
• OCCOCC(F)(F)F = 106 % of control

---

# T/C values compiled below
test system: BDF1 mice, Lewis lung carcinoma iv, survival T/C; test: NCI In Vivo Anticancer Drug Screen. Data for tumor model Lewis Lung Carcinoma (intravenous) in B6D2F1 (BDF1) mice; settings: endpoint: median survival time; dose: 0.25 mg/kg/injection; schedule: Q01DX009 (ip); vehicle: saline; higher = longer survival
Toxic doses and inconclusive results are not listed.
MEASURE_NAME: T/C

* O[C@H](CN1CC1)[C@@H](O)CN1CC1 | 121 % of control
* Nc1nc(=S)c2[nH]cnc2[nH]1 | 105 % of control
* CC(=O)O[C@@H]1C(=O)C=C(C)[C@@H]2[C@@H](OC(=O)C=C(C)C)[C@H]3OC(=O)C[C@H]4[C@@H](C)[C@@H](O)[C@]5(O)OC[C@]34[C@H]5[C@@]12C | 106 % of control
* OC(C1CO1)C(O)C1CO1 (stereo not given) | 93 % of control
* CO[C@@]12[C@H](COC(N)=O)C3=C(C(=O)C(C)=C(N)C3=O)N1C[C@@H]1N[C@@H]12 | 105 % of control

---

test system: BDF1 mice, Lewis lung carcinoma iv, survival T/C; assay: NCI In Vivo Anticancer Drug Screen. Data for tumor model Lewis Lung Carcinoma (intravenous) in B6D2F1 (BDF1) mice; conditions: endpoint: median survival time; dose: 1.56 mg/kg/injection; schedule: Q01DX009 (ip); vehicle: saline with Tween-80
Inconclusive results and toxic doses are left out. Rule for the calls: active = survival T/C of 150% or more; inactive = T/C below 125% in these data.
Outcomes: Yes = active, No = inactive

• O=C1C2(Cl)C3(Cl)C4(Cl)C(Cl)(Cl)C5(Cl)[C@]3(Cl)C1(Cl)[C@]5(Cl)C24Cl (some centres not stated) = Yes
• Cn1cnc([N+](=O)[O-])c1Sc1nc(N)nc2c1ncn2C1OC(CO)C(O)C1O (configuration not stated) = No
• Cc1cc(NCCCCCCCNc2cc(C)nc3cc(N)ccc23)c2ccc(N)cc2n1 = No
• NC(N)=NC(N)=Nc1ccc(-c2ccc(N=C(N)N=C(N)N)cc2)cc1 = No
• CCCCCCCCCCCCN1C(C)=CS/C1=C\C=C\c1scc(C)[n+]1CCCCCCCCCCCC = No
• c1ccc2c(c1)nnn1c3cnccc3nc21 = No
• CC(C)(C)N1CC1CNC(=O)C(=O)NCC1CN1C(C)(C)C (configuration not stated) = No
• Cc1ccc[c]([Hg][Cl])c1N=Nc1ccccc1 = No
• OCCN1CCN(CC/C=C2/c3ccccc3Sc3ccc(C(F)(F)F)cc32)CC1 = No
• CSc1ccc2c(c1)C(N1CCN(C)CC1)Cc1ccccc1S2 (configuration not stated) = No
• CCc1nc(N)nc(N)c1-c1ccc(Cl)c([N+](=O)[O-])c1 = No
• COc1cc(O)c2c(O)c3c(c4c2c1[C@]1(C4)C(C)=CCCC1(C)C)[C@H](O)[C@@]1(O)CC(=O)C(C(N)=O)=C(O)[C@@]1(O)C3=O = No

---

# T/C values compiled below
System: BDF1 mice, Lewis lung carcinoma iv, survival T/C
Experiment: NCI In Vivo Anticancer Drug Screen. Data for tumor model Lewis Lung Carcinoma (intravenous) in B6D2F1 (BDF1) mice
Conditions: endpoint: median survival time; dose: 50.0 mg/kg/injection; schedule: Q01DX009 (ip); vehicle: saline; higher = longer survival
Procedure: The antitumor activity of compounds was measured in mice bearing transplantable tumors. Survival or tumor size were measured and the results are expressed as the measurement made in the treated group (T) divided by the measurement made in the vehicle treated control group (C). The tumor model used in this assay is Lewis Lung Carcinoma (intravenous) in B6D2F1 (BDF1) mice
Toxic doses and inconclusive results are not listed.
MEASURE_NAME: T/C

• O=C(/C=C(\Cl)C(=O)NO)NO = 110 % of control
• O=C(O)CP(=O)(O)O = 96 % of control
• Nc1ncnc2c1cnn2Cc1ccc(Cl)cc1 = 98 % of control
• CCN(CC)CCOC(=O)Cc1cccc2c(=O)cc(-c3ccccc3)oc12 = 105 % of control
• CN(C)[C@@H]1C(=O)C(C(N)=O)=C(O)[C@@]2(O)C(=O)C3=C(O)c4c(O)ccc(Cl)c4[C@@](C)(O)[C@H]3C[C@@H]12 = 99 % of control
• Nc1nc2c(c(=O)[nH]1)NC(CCNc1ccc(C(=O)NC(CCC(=O)O)C(=O)O)cc1)CN2 (configuration not stated) = 103 % of control
• CN1CCN(c2ccc3nc(-c4ccc5nc(-c6ccc(O)cc6)[nH]c5c4)[nH]c3c2)CC1 = 102 % of control
• c1cn[nH]c1 = 110 % of control
• CCN(CC)CCOCCO = 99 % of control
• c1cc2n(n1)CCN2 = 105 % of control
• CC(C)n1cc2c(N)ncnc2n1 = 112 % of control
• COC(OC(CO)C(O)S(=O)(=O)O)C(O)S(=O)(=O)O (configuration not stated) = 102 % of control

---

System: BDF1 mice, Lewis lung carcinoma iv, survival T/C
Test: NCI In Vivo Anticancer Drug Screen. Data for tumor model Lewis Lung Carcinoma (intravenous) in B6D2F1 (BDF1) mice
Details: endpoint: median survival time; dose: 12.5 mg/kg/injection; schedule: Q01DX009 (ip); vehicle: saline; higher = longer survival
Procedure: The antitumor activity of compounds was measured in mice bearing transplantable tumors. Survival or tumor size were measured and the results are expressed as the measurement made in the treated group (T) divided by the measurement made in the vehicle treated control group (C). The tumor model used in this assay is Lewis Lung Carcinoma (intravenous) in B6D2F1 (BDF1) mice
Inconclusive results and toxic doses are left out.
# T/C values compiled below
MEASURE_NAME: T/C

* CN(C)[C@@H]1C(=O)C(C(N)=O)=C(O)[C@@]2(O)C(=O)C3=C(O)c4c(O)ccc(Cl)c4[C@@](C)(O)[C@H]3C[C@@H]12 | 111 % of control
* C=C(C)[C@@H]1CCc2c(O)c(O)c(=O)cc(C)c2C1 | 96 % of control
* CC(C)C1OC(=O)/C=C/C=C/C=C/C=C/C=C/CC(O)C(C)C(O)CC(O)CC(O)CC(O)CC(O)CC(O)CC(O)/C=C/C1C (centres undefined) | 104 % of control
* COc1cc2cc3cc4cc(OC)c(OC)cc4c(C)[n+]3cc2cc1OC (tested in a mixture with another compound) | 106 % of control

---

tested on: BDF1 mice, Lewis lung carcinoma iv, survival T/C; assay: NCI In Vivo Anticancer Drug Screen. Data for tumor model Lewis Lung Carcinoma (intravenous) in B6D2F1 (BDF1) mice; conditions: endpoint: median survival time; dose: 25.0 mg/kg/injection; schedule: Q01DX009 (ip); vehicle: saline with Tween-80; higher = longer survival
Toxic doses and inconclusive results are not listed.
# T/C values compiled below
MEASURE_NAME: T/C

- COC1/C=C/O[C@@]2(C)Oc3c(C)c(O)c4c(O)c(cc(O)c4c3C2=O)NC(=O)/C(C)=C\C=C\[C@H](C)C(O)[C@@H](C)[C@@H](O)[C@@H](C)[C@H](OC(C)=O)[C@@H]1C (stereo partly drawn): 101 % of control
- CCCCCCCCCCCCOP(N)(=O)OCCCCCCCCCCCC: 97 % of control
- ClCc1ccc2ccccc2n1: 100 % of control
- Nc1ccc(Cl)cc1N: 93 % of control
- COP12(OCCO1)SC(C(F)(F)F)=C(C(F)(F)F)S2: 98 % of control
- CCO/C=C1\SC(=S)N(c2ccccc2C)C1=O: 94 % of control
- COC(=O)c1[nH]c(=O)[nH]c(=O)c1F: 98 % of control
- CCCCCCCCCCCCCCCCCCCCCC(=O)Nc1ccn(C2OC(CO)C(O)C2O)c(=O)n1 (stereo not drawn): 94 % of control
- CC(C#N)(C#N)N=Nc1ccc(Cl)cc1Cl: 94 % of control
- O=[N+]([O-])c1cc([N+](=O)[O-])c(Nn2c3ccccc3c3ccccc32)c([N+](=O)[O-])c1: 105 % of control
- O=C1NC(=O)/C(=C/C=C/c2ccccc2)S1: 104 % of control
- CC1=CC(=NN=c2cc(C)n([O-])c(C)c2)C=C(C)[N+]1=O: 100 % of control
- CCCCc1ccc2nc(NC(=O)OC)[nH]c2c1: 103 % of control
- COc1ccc2nonc2c1: 191 % of control
- CCN1CSC(=S)N(CC)C1: 103 % of control
- COc1ccc(C(Cn2ccnc2)Sc2ccc(Cl)c(Cl)c2)cc1 (stereo not drawn): 96 % of control
- C/C(=N\NC(N)=O)c1cccc(/C(C)=N/NC(N)=O)n1: 98 % of control
- CN=C(N)N/N=C(\C)c1ccc2oc3ccc(/C(C)=N/NC(N)=NC)cc3c2c1: 118 % of control

Source of measurements: PubChem BioAssay AID274
